ASSAY COMMENT: Osmotic pressure of saturated verapamil hydrochloride solution / of the blend of verapamil plus osmotic solute (vapor pressure osmometry)
Format: physicochemical
RECORDED CONDITIONS: verapamil plus the osmotic solute named in the line
Counter-ions that a name gives are not always drawn.
METRIC: π, osmotic pressure of the blend of Sd plus So (atm)

Examples with their reported π, osmotic pressure of the blend of Sd plus So follow.
O=C(O)CCC(=O)O [Succinic Acid]
22.9
O=C[C@H](O)[C@@H](O)[C@@H](O)[C@H](O)CO
87.1
O=C(O)C(O)C(O)C(=O)O (stereo not shown) [Sodium Tartrate]
100.0
OC[C@@H](O)[C@@H](O)[C@H](O)[C@H](O)CO
42.8
O=C(O)/C=C/C(=O)O
21.4

(a) O=C(O)CCC(=O)O [Disodium Succinate]
(b) O=C[C@H](O)[C@@H](O)[C@@H](O)CO
(c) O=C(O)CCCCC(=O)O
(d) O[C@H]1[C@H](O)[C@@H](O)[C@H](O)[C@@H](O)[C@H]1O
(e) O=C1O[C@H]([C@@H](O)CO)C(O)=C1O
### Prompt Put these in order: smallest π, osmotic pressure of the blend of Sd plus So first, largest last. Response format: the labels, sorted as the prompt asks.
### Response c, d, a, e, b
(c: 13.9 atm, d: 20.6 atm, a: 36.6 atm, e: 76.8 atm, b: 110.3 atm)

----------
ASSAY COMMENT: Solubility of verapamil and of osmotic solutes in a common aqueous fluid
RECORDED CONDITIONS: common aqueous fluid
METRIC: So, solubility of the osmotic solute (mg/mL)

O=C(O)/C=C/C(=O)O [Fumaric Acid]
77
OC[C@@H](O)[C@@H](O)[C@H](O)[C@H](O)CO [Mannitol]
219

(I) COc1ccccc1OCC(O)CO (stereo not shown) [Guaifenesin, reference compound]
(II) O=C[C@H](O)[C@@H](O)[C@@H](O)CO [L-Arabinose]
### Prompt Please choose the item with the lower So, solubility of the osmotic solute value from this pair: I and II Refer to your chosen item by its label in the answer.
### Response I
